# % Remaining SCD activity compared to DMSO control, average annotations
- tested_system: stearoyl-CoA desaturase (SCD) (Mus musculus, UniProt P13516)
- Construct: % Remaining SCD activity compared to DMSO control in mouse liver microsome assay; from tissue; host or cells: mouse liver microsomes
- Sequence (P13516 whole entry): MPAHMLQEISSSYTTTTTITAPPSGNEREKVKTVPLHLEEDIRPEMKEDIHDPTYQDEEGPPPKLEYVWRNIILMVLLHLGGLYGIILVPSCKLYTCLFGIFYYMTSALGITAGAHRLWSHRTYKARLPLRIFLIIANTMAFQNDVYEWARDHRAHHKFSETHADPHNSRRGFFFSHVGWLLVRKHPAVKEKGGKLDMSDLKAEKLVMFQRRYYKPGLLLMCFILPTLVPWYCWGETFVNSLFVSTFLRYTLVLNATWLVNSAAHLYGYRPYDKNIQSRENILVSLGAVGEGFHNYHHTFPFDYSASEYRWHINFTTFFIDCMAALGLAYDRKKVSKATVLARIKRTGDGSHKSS
- experiment_description: SCD mouse liver microsome assay (tritiated stearoyl-CoA desaturation)
- Format: biochemical
- condition_details: 0.1 uM test compound; mouse liver microsomes 100 μg, 15 min RT preincubation, 15 min RT desaturation
Write down the numeric answer in % and omit the unit.

# annotated cases, reported % Remaining SCD activity compared to DMSO control, average shown
{"input_smiles": "CCCCCNC(=O)c1ccc(N2CCN(C(=O)c3ccccc3C(F)(F)F)CC2)nc1", "experimental_result": 25.41}
{"input_smiles": "CC(C)CCNC(=O)c1ccc(N2CCN(C(=O)c3cccc4ccccc34)CC2)nc1", "experimental_result": 31.35}

# next compound below
Exercise: Read off the recorded % Remaining SCD activity compared to DMSO control, average for `CCCCCNC(=O)c1ccc(N2CCN(C(=O)c3ccccc3Br)CC2)nc1`
Solution: 44.42
